Species: Rattus norvegicus
assayRemarks: DrugMatrix - Regimen: Daily Repeat
Assay type: toxicity, organism-based, Sprague-Dawley
Parameters: regimen Daily Repeat, gender Male, age 6-8 weeks
experimentalContext: in vivo, po, 0 mg/kg, 120 h, tissue Plasma, route oral GAVAGE, dose level Control, time 5 day, vehicle 100 % WATER
valueKind: POTASSIUM
Quick note: number first, unit second.

Query block: Note POTASSIUM for the compound shown: O=P1(N(CCCl)CCCl)NCCCO1 (stereo not given) [CYCLOPHOSPHAMIDE ANHYDROUS]
Result block: 6 MEQ/L

Query block: Note POTASSIUM for the compound shown: CN1C2CCCC1CC(NC(=O)c1nn(C)c3ccccc13)C2 (stereo not given) [GRANISETRON]
Result block: 6.07 MEQ/L

Query block: Note POTASSIUM for the compound shown: CCCCCCCCCCCCCCCC[n+]1ccccc1.[Br-]
Result block: 6.73 MEQ/L

Continuing:
Query block: Note POTASSIUM for the compound shown: CNS(=O)(=O)Cc1ccc2[nH]cc(CCN(C)C)c2c1
Result block: 6.11 MEQ/L

Query block: Note POTASSIUM for the compound shown: CC[C@H]1OC(=O)[C@H](C)[C@@H](O[C@H]2C[C@@](C)(OC)[C@@H](O)[C@H](C)O2)[C@H](C)[C@@H](O[C@@H]2O[C@H](C)C[C@H](N(C)C)[C@H]2O)[C@](C)(OC)C[C@@H](C)C(=O)[C@H](C)[C@@H](O)[C@]1(C)O [CLARITHROMYCIN]
Result block: 6.17 MEQ/L

---

Species: Rattus norvegicus
assayRemarks: DrugMatrix - Regimen: Daily Repeat
Format: toxicity, organism-based, Sprague-Dawley
Parameters: regimen Daily Repeat, gender Male, age 6-8 weeks
experimentalContext: in vivo, po, 0 mg/kg, 120 h, tissue Plasma, route oral GAVAGE, dose level Control, time 5 day, vehicle 100 % WATER
Assign class by URIC ACID: not lower than 0.7 mg/dL means yes (1); lower than 0.7 mg/dL means no (0).

Query block: Dear colleague, could you confirm whether CCCCCCCCCCCCCCCC[n+]1ccccc1.[Br-] has URIC ACID at or above 0.7 mg/dL?
Result block: yes (1)

Query block: Dear colleague, could you confirm whether CC(C)(C)NC[C@H](O)COc1nsnc1N1CCOCC1 has URIC ACID at or above 0.7 mg/dL?
Result block: no (0)

Query block: Dear colleague, could you confirm whether Nc1ccc(S(=O)(=O)Nc2nccs2)cc1 has URIC ACID at or above 0.7 mg/dL?
Result block: no (0)

Continuing:
Query block: Dear colleague, could you confirm whether O=P1(N(CCCl)CCCl)NCCCO1 (configuration not stated) [CYCLOPHOSPHAMIDE ANHYDROUS] has URIC ACID at or above 0.7 mg/dL?
Result block: no (0)

Query block: Dear colleague, could you confirm whether OCCO has URIC ACID at or above 0.7 mg/dL?
Result block: yes (1)

Query block: Dear colleague, could you confirm whether CCCc1nn(C)c2c(=O)[nH]c(-c3cc(S(=O)(=O)N4CCN(C)CC4)ccc3OCC)nc12 has URIC ACID at or above 0.7 mg/dL?
Result block: yes (1)

Query block: Dear colleague, could you confirm whether CNS(=O)(=O)Cc1ccc2[nH]cc(CCN(C)C)c2c1 has URIC ACID at or above 0.7 mg/dL?
Result block: yes (1)
